System: rodent lifetime carcinogenesis bioassay, tumor incidence TD50
Test: carcinogenic potency in animals, long-term in vivo studies, CPDB compilation (AID 1745844)
Details: mouse; strain Charles River CD1; males; in feed; site: any site (literature study); lesion: several types; types named in the paper; dosed 40 weeks; study length 77 weeks
observable: TD50 (mg/kg/day)

| chemicalStructure | experimentalSystem | measuredValue |
| --- | --- | --- |
| O=CNc1nc(-c2ccc([N+](=O)[O-])o2)cs1 | rodent lifetime carcinogenesis bioassay, tumor incidence TD50 | 21.5 |

====

Test system: rodent lifetime carcinogenesis bioassay, tumor incidence TD50
Test: carcinogenic potency in animals, long-term in vivo studies, CPDB compilation (AID 1745844)
Details: rat; strain Charles River CD1; males; in feed; site: kidney/pelvis; lesion: several types; types named in the paper; dosed 104 weeks; study length 104 weeks
observable: TD50 (mg/kg/day)

| chemicalStructure | observable | measuredValue |
| --- | --- | --- |
| CCOP(=O)=O.CCOP(=O)=O.CCOP(=O)=O.[Al+3] | TD50 | 36400 |

====

System: rodent lifetime carcinogenesis bioassay, tumor incidence TD50
Test: carcinogenic potency in animals, long-term in vivo studies, CPDB compilation (AID 1745844)
Settings: mouse; strain Charles River CD1; males; in feed; site: lung; lesion: alveolar/bronchiolar carcinoma; dosed 86 weeks; study length 86 weeks
The source made the active and inactive calls. The rule behind the calls is not given here.

| chemicalStructure | TD50 |
| --- | --- |
| Cc1ccc2c(-c3cccc(O)c3)nc(=O)n(C(C)C)c2c1 | 8400 mg/kg/day (inactive) |

====

Test system: rodent lifetime carcinogenesis bioassay, tumor incidence TD50
Test: carcinogenic potency in animals, long-term in vivo studies, CPDB compilation (AID 1745844)
Details: rat; strain Fischer 344; males; in feed; site: liver; lesion: hepatocellular adenoma; dosed 37 weeks; study length 52 weeks

| chemicalStructure | TD50 (mg/kg/day) |
| --- | --- |
| Cc1cccc(Nc2cc(Cl)nc(SCC(=O)O)n2)c1C | 95.1 |

====

Test system: rodent lifetime carcinogenesis bioassay, tumor incidence TD50
Assay: carcinogenic potency in animals, long-term in vivo studies, CPDB compilation (AID 1745844)
Details: rat; strain Fischer 344; males; by gavage; site: any site (literature study); lesion: several types; types named in the paper; dosed 102 weeks; study length 102 weeks

| compound | TD50 / mg/kg/day |
| --- | --- |
| CC(CN1c2ccccc2Sc2ccccc21)N(C)C (stereo unspecified) | 24.6 |

====

Test system: rodent lifetime carcinogenesis bioassay, tumor incidence TD50
Assay: carcinogenic potency in animals, long-term in vivo studies, CPDB compilation (AID 1745844)
Conditions: rat; strain Alpk:APfSD; males; by gavage; site: stomach; lesion: fibrosarcoma; dosed 52 weeks; study length 100 weeks

| chemicalStructure | TD50 |
| --- | --- |
| FCCl | 88.1 mg/kg/day |

====

Test system: rodent lifetime carcinogenesis bioassay, tumor incidence TD50
Assay: carcinogenic potency in animals, long-term in vivo studies, CPDB compilation (AID 1745844)
Conditions: rat; strain Fischer 344; females; by gavage; site: Zymbal's gland; lesion: carcinoma; dosed 91 weeks; study length 105 weeks

| chemicalStructure | TD50 |
| --- | --- |
| ClCC(Cl)CCl | 59 mg/kg/day |

====

System: rodent lifetime carcinogenesis bioassay, tumor incidence TD50
Assay: carcinogenic potency in animals, long-term in vivo studies, CPDB compilation (AID 1745844)
Details: rat; strain Fischer 344; males; inhaled; site: mammary gland; lesion: fibroadenoma, multiple; dosed 104 weeks; study length 104 weeks
observable: TD50

| chemicalStructure | observable | measuredValue |
| --- | --- | --- |
| C=CC(=C)C | TD50 | 2220 mg/kg/day |

The values you see were collected from PubChem BioAssay AID1745844.
